The measured values listed here are drawn from paper PMC10586451.

molecular target: butyrylcholinesterase (BChE) (Equus caballus, UniProt P81908); construct: butyrylcholinesterase (BChE) from horse serum; from tissue; host or cells: horse serum; assay: biochemical; details: Selectivity index: IC50 for AChE/IC50 for BChE
Sequence (P81908 whole entry): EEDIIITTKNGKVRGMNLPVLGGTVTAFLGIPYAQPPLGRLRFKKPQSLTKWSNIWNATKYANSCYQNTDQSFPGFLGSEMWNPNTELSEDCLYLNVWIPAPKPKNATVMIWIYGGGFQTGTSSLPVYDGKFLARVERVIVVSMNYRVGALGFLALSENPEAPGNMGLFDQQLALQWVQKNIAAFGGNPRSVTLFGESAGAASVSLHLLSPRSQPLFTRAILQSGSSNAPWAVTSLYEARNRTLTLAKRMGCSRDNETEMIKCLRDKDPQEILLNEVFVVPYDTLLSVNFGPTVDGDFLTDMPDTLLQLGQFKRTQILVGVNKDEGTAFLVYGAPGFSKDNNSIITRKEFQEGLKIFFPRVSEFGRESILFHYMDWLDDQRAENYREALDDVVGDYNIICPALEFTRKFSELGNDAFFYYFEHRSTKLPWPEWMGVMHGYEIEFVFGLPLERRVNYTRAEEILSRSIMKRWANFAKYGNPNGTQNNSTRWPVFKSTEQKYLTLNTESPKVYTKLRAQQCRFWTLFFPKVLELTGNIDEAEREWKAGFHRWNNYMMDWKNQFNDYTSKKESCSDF
Give measured SI for BChE for each item. Keep answers brief.
Numbers only.

// worked examples, SI for BChE included
| Smiles | SI for BChE |
| --- | --- |
| O=C1C(=Cc2ccc(Br)cc2)SC(=NN2CCOCC2)N1c1ccccc1 | 0.70 |
| CN(C)c1ccc(C=C2SC(=NN3CCOCC3)N(c3ccccc3)C2=O)cc1 | 0.71 |
| O=C1C(=Cc2nccs2)SC(=NN2CCOCC2)N1c1ccccc1 | 0.79 |
| O=C1C(=Cc2ccccn2)SC(=NN2CCOCC2)N1c1ccccc1 | 0.73 |

List SI for BChE for every entry below, keeping the order given.
1. O=C1C(=Cc2ccc(N3CCCCC3)cc2)SC(=NN2CCOCC2)N1c1ccccc1
2. COc1ccc(C=C2SC(=NN3CCOCC3)N(c3ccccc3)C2=O)cc1
3. O=C1C(=Cc2ccc3[nH]ccc3c2)SC(=NN2CCOCC2)N1c1ccccc1
4. O=C1C(=Cc2ccco2)SC(=NN2CCOCC2)N1c1ccccc1
5. O=C1C(=Cc2ccc(O)cc2)SC(=NN2CCOCC2)N1c1ccccc1
6. O=C1C(=Cc2c[nH]c3ccccc23)SC(=NN2CCOCC2)N1c1ccccc1
7. O=C1C(=Cc2ccc(N3CCOCC3)cc2)SC(=NN2CCOCC2)N1c1ccccc1
8. O=C1CSC(=NN2CCOCC2)N1c1ccccc1

Result string:
[0.62, 0.79, 0.78, 0.73, 0.73, 0.76, 0.75, 0.67]

---

molecular target: tyrosinase; conditions: mean ± SEM of three parallel measurements
pIC50: −log10 of the molar value.
# label = fulfilled if pIC50 >= 2 else not fulfilled

| Smiles | Classification |
| --- | --- |
| S=C(Nc1ccccc1)NN1CCOCC1 | not fulfilled |

Query string: Hi team, for O=C1C(=Cc2c[nH]c3ccccc23)SC(=NN2CCOCC2)N1c1ccccc1 , is the recorded pIC50 at or above 2?
Result string: fulfilled

Query string: Also O=C1C(=Cc2ccc([N+](=O)[O-])cc2)SC(=NN2CCOCC2)N1c1ccccc1 ?
Result string: not fulfilled

Query string: Also O=C1C(=Cc2ccc3[nH]ccc3c2)SC(=NN2CCOCC2)N1c1ccccc1 ?
Result string: fulfilled

---

target: UniProt O42275
Sequence (O42275 24-633): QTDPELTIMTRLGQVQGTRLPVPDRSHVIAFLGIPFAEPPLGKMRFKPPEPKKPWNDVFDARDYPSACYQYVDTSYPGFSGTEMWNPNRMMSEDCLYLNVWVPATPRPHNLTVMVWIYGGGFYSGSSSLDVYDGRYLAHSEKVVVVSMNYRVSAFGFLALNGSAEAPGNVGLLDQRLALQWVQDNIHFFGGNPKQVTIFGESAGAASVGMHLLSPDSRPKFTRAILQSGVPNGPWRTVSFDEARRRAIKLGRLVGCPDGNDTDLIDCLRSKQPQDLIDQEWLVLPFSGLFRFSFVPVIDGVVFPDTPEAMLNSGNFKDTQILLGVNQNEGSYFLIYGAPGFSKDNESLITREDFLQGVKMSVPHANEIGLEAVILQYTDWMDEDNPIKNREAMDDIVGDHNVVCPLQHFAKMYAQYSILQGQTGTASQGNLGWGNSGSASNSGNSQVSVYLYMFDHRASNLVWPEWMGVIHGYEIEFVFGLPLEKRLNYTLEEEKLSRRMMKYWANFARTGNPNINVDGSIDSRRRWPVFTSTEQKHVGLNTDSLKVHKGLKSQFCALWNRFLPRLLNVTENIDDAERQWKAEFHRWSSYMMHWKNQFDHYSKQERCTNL
Give measured pIC50 for each item. Keep answers brief.
One number for each entry, as −log10 of the molar value.

| Smiles | Result |
| --- | --- |
| O=C1C(=Cc2ccccn2)SC(=NN2CCOCC2)N1c1ccccc1 | 4.69 |
| O=C1C(=Cc2nccs2)SC(=NN2CCOCC2)N1c1ccccc1 | 4.57 |
| O=C1C(=Cc2ccccc2)SC(=NN2CCOCC2)N1c1ccccc1 | 4.47 |
| COc1cc(C=C2SC(=NN3CCOCC3)N(c3ccccc3)C2=O)cc(OC)c1OC | 4.47 |
| O=C1C(=Cc2ccc[nH]2)SC(=NN2CCOCC2)N1c1ccccc1 | 4.67 |
| O=C1C(=Cc2ccc([N+](=O)[O-])cc2)SC(=NN2CCOCC2)N1c1ccccc1 | 4.53 |
| O=C1C(=Cc2ccsc2)SC(=NN2CCOCC2)N1c1ccccc1 | 4.54 |

// next item, pIC50 requested
Query string: Provide the documented pIC50 with UniProt O42275 as the system for S=C(Nc1ccccc1)NN1CCOCC1
Result string: 3.89
